# target.under.test: T1, Helicobacter pylori Hsp60 with a 6 × His tag on its C terminus (Helicobacter pylori 26695, UniProt P42383 1-546)
# T1 construct: also called recombinant Hsp60; source: E. coli BL21(DE3), purified (Ni-NTA, Sephadex G-75 gel filtration); not shown: His6, C-terminal, kept
# procedure.details: SPR; BIAcore T100; Hsp60 immobilized on CM5 chip (~600 RU); UreA-His or mutants as analytes (0.36-2.19 μM); PBS pH 7.4, 30 μl/min, 25°C; kinetic analysis, global fit to 1:1 Langmuir model
# settings: both partners purified
pKd: −log10 of the molar value.
assay.readout: pKd

INSERT INTO measurements (binder, reported) VALUES
  ('UreA-His K26A (natural protein, source: E. coli BL21(DE3), purified as wild-type UreA-His; not shown: His tag, C-terminal, kept) MKLTPKELDKLMLHYAGELAKKRKEAGIKLNYVEAVALISAHIMEEARAGKKTAAELMQEGRTLLKPDDVMDGVASMIHEVGIEAMFPDGTKLVTVHTPIEANGKLVPGELFLKNEDITINEGKKAVSVKVKNVGDRPVQIGSHFHFFEVNRCLDFDREKTFGKRLDIASGTAVRFEPGEEKSVELIDIGGNRRIFGFNALVDRQADNESKKIALHRAKERGFHGAKSDDNYVKTIKE', 6.34),
  ('UreA-His K22A (natural protein, source: E. coli BL21(DE3), purified as wild-type UreA-His; not shown: His tag, C-terminal, kept) MKLTPKELDKLMLHYAGELAKARKEKGIKLNYVEAVALISAHIMEEARAGKKTAAELMQEGRTLLKPDDVMDGVASMIHEVGIEAMFPDGTKLVTVHTPIEANGKLVPGELFLKNEDITINEGKKAVSVKVKNVGDRPVQIGSHFHFFEVNRCLDFDREKTFGKRLDIASGTAVRFEPGEEKSVELIDIGGNRRIFGFNALVDRQADNESKKIALHRAKERGFHGAKSDDNYVKTIKE', 6.51),
  ('UreA-His Y15A (natural protein, source: E. coli BL21(DE3), purified as wild-type UreA-His; not shown: His tag, C-terminal, kept) MKLTPKELDKLMLHAAGELAKKRKEKGIKLNYVEAVALISAHIMEEARAGKKTAAELMQEGRTLLKPDDVMDGVASMIHEVGIEAMFPDGTKLVTVHTPIEANGKLVPGELFLKNEDITINEGKKAVSVKVKNVGDRPVQIGSHFHFFEVNRCLDFDREKTFGKRLDIASGTAVRFEPGEEKSVELIDIGGNRRIFGFNALVDRQADNESKKIALHRAKERGFHGAKSDDNYVKTIKE', 6.82),
  ('UreA-His (urease α subunit fused with a His tag on its C-terminus) (natural protein, also called wild-type UreA-His; urease subunit α; source: E. coli BL21(DE3), purified (Ni-NTA); not shown: His tag, C-terminal, kept) MKLTPKELDKLMLHYAGELAKKRKEKGIKLNYVEAVALISAHIMEEARAGKKTAAELMQEGRTLLKPDDVMDGVASMIHEVGIEAMFPDGTKLVTVHTPIEANGKLVPGELFLKNEDITINEGKKAVSVKVKNVGDRPVQIGSHFHFFEVNRCLDFDREKTFGKRLDIASGTAVRFEPGEEKSVELIDIGGNRRIFGFNALVDRQADNESKKIALHRAKERGFHGAKSDDNYVKTIKE', 7.77),
  ('UreA-His E25A (natural protein, source: E. coli BL21(DE3), purified as wild-type UreA-His; not shown: His tag, C-terminal, kept) MKLTPKELDKLMLHYAGELAKKRKAKGIKLNYVEAVALISAHIMEEARAGKKTAAELMQEGRTLLKPDDVMDGVASMIHEVGIEAMFPDGTKLVTVHTPIEANGKLVPGELFLKNEDITINEGKKAVSVKVKNVGDRPVQIGSHFHFFEVNRCLDFDREKTFGKRLDIASGTAVRFEPGEEKSVELIDIGGNRRIFGFNALVDRQADNESKKIALHRAKERGFHGAKSDDNYVKTIKE', 6.85),
  ('UreA-His D68A (natural protein, source: E. coli BL21(DE3), purified as wild-type UreA-His; not shown: His tag, C-terminal, kept) MKLTPKELDKLMLHYAGELAKKRKEKGIKLNYVEAVALISAHIMEEARAGKKTAAELMQEGRTLLKPADVMDGVASMIHEVGIEAMFPDGTKLVTVHTPIEANGKLVPGELFLKNEDITINEGKKAVSVKVKNVGDRPVQIGSHFHFFEVNRCLDFDREKTFGKRLDIASGTAVRFEPGEEKSVELIDIGGNRRIFGFNALVDRQADNESKKIALHRAKERGFHGAKSDDNYVKTIKE', 5.70),
  ('UreA-His K66A (natural protein, source: E. coli BL21(DE3), purified as wild-type UreA-His; not shown: His tag, C-terminal, kept) MKLTPKELDKLMLHYAGELAKKRKEKGIKLNYVEAVALISAHIMEEARAGKKTAAELMQEGRTLLAPDDVMDGVASMIHEVGIEAMFPDGTKLVTVHTPIEANGKLVPGELFLKNEDITINEGKKAVSVKVKNVGDRPVQIGSHFHFFEVNRCLDFDREKTFGKRLDIASGTAVRFEPGEEKSVELIDIGGNRRIFGFNALVDRQADNESKKIALHRAKERGFHGAKSDDNYVKTIKE', 6.68),
  ('UreA-His R23A (natural protein, source: E. coli BL21(DE3), purified as wild-type UreA-His; not shown: His tag, C-terminal, kept) MKLTPKELDKLMLHYAGELAKKAKEKGIKLNYVEAVALISAHIMEEARAGKKTAAELMQEGRTLLKPDDVMDGVASMIHEVGIEAMFPDGTKLVTVHTPIEANGKLVPGELFLKNEDITINEGKKAVSVKVKNVGDRPVQIGSHFHFFEVNRCLDFDREKTFGKRLDIASGTAVRFEPGEEKSVELIDIGGNRRIFGFNALVDRQADNESKKIALHRAKERGFHGAKSDDNYVKTIKE', 6.55);
